Molecular target: T1, EsCas13d, nuclease-dead (Eubacterium siraeum, UniProt B0MS50, R295A;H300A;R849A;H854A)
T1 sequence: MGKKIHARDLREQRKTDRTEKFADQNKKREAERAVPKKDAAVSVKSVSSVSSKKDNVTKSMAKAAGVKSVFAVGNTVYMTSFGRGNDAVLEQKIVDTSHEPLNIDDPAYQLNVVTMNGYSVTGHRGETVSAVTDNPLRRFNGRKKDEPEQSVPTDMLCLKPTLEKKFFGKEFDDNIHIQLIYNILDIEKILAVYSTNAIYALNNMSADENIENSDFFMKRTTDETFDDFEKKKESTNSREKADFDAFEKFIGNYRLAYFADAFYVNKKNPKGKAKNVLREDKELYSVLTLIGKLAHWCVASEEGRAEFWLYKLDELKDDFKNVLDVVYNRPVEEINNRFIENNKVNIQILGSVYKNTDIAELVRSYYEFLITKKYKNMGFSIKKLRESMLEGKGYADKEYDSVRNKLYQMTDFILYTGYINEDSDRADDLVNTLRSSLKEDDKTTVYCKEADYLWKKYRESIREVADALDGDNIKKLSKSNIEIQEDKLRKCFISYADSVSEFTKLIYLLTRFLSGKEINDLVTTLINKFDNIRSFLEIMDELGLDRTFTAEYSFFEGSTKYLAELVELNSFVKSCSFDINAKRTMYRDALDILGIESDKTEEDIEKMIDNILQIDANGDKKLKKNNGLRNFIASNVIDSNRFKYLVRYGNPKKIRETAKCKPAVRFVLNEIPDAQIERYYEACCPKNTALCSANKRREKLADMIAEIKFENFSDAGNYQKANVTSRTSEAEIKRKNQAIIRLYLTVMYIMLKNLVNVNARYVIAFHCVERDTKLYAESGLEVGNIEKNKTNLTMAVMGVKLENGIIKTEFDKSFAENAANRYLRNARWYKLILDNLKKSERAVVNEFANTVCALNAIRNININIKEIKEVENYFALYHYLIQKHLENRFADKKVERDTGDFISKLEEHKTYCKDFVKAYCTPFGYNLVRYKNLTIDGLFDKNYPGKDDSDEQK
Experiment: crRNA (strand 1, pre-loaded); Mg2+; 40 mM Tris-HCl pH 7.5, 150 mM NaCl, 6 mM MgCl2, 1 mM DTT, 0.1% Tween-20, 0.2 mg/ml BSA; 25 C; 10 min per concentration, then washed
Conditions: tags: His6-TwinStrep-SUMO cleaved; N-terminal SNAP kept (SNAP-Surface 488); label: 3' end held by stalled T7 RNA polymerase
Hi there, I'd appreciate the recorded Kd for every entry that follows.

-- ask Can you share its Kd? I mean this binder: target 2 MT 5'PFS UGU 3'PFS UGU (mixed) RNA 1: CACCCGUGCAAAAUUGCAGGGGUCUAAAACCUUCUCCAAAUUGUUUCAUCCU RNA 2: GGGAAUGGAUCCACAUCUACGAAUUCUGUAGGAUGAAACAAUUUGGAGAAGUGUAGAUCGGAAGAGCACACGU
-- reply 18.9 nM

-- ask Fill in: Kd of target 2 MT 5'PFS CUG 3'PFS CCG (mixed) RNA 1: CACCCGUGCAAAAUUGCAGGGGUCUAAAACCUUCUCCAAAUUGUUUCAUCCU RNA 2: GGGAAUGGAUCCACAUCUACGAAUUCCUGAGGAUGAAACAAUUUGGAGAAGCCGAGAUCGGAAGAGCACACGU is ___
-- reply 4.06 nM

-- ask Suppose we examine the binder target 1 MT 5'PFS CCG 3'PFS UAU (mixed) RNA 1: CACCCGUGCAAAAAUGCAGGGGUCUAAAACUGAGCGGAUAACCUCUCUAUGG RNA 2: GGGAAUGGAUCCACAUCUACGAAUUCCCGCCAUAGAGAGGUUAUCCGCUCAUAUAGAUCGGAAGAGCACACGU ; what Kd value has been reported?
-- reply 3.2 nM

-- ask Find the recorded Kd belonging to target 3 U8G,U22A (mixed) RNA 1: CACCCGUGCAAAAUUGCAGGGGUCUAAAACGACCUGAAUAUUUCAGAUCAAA RNA 2: GGGAAUGGAUCCACAUCUACGAAUUCGUUAUUGAUCUGAAAUAGUCAGGUCUGCAGAUCGGAAGAGCACACGU and report it.
-- reply 72.5 nM
